Where these numbers come from: ChEMBL document CHEMBL1139919

- Run description: Oral bioavailability in rat at 5 mg/kg
- Assay type: ADME, organism-based
- Settings: in vivo
Reported property: bioavailability (%)
# output: bare number, implied unit %

Task item: # query: bioavailability of entry CSc1ccc(-c2cnccc2C2CCC(F)(F)CC2C(=O)NCC#N)cc1 (racemic)
Reply: 65

###

Recorded Selectivity ratio values for a group of molecules are listed next.
- Species on record: Homo sapiens
- Run description: Selectivity for human cathepsin K over human cathepsin S

Task item: Field request: Selectivity ratio | item: CSc1ccc(-c2ccccc2C2CCC(F)(F)CC2C(=O)NCC#N)cc1 (racemic; form 1)
Reply: 940

###

- Organism: Homo sapiens
- Run description: Selectivity for human cathepsin K over human cathepsin L
Reported property: Selectivity ratio
Could you keep your reply to the number by itself?

Task item: Need Selectivity ratio, item CSc1ccc(-c2c[n+]([O-])ccc2C2CCC(F)(F)CC2C(=O)NCC#N)cc1 (racemic)
Reply: 460

Task item: Reported Selectivity ratio, molecule CSc1ccc(-c2c[nH]c(=O)cc2C2CCC(F)(F)CC2C(=O)NCC#N)cc1 (racemic) : ____
Reply: 410

In the following, a different molecule is considered.
Task item: I have this molecule here, N#CCNC(=O)C1CC(F)(F)CCC1c1cnccc1-c1ccc(SCF)cc1 (racemic) , and I need its recorded Selectivity ratio.
Reply: 260

###

- Species: Homo sapiens
- Run description: Selectivity for human cathepsin K over human cathepsin B
Quick reference: Selectivity ratio of the listed items.

Answered examples (4):
Task item: What Selectivity ratio value was documented for this molecule, CSc1ccc(-c2c[nH]c(=O)cc2C2CCC(F)(F)CC2C(=O)NCC#N)cc1 (racemic) ?
Reply: 1200

Task item: Find the recorded Selectivity ratio belonging to CSc1ccc(-c2ccccc2C2CCC(F)(F)CC2C(=O)NCC#N)cc1 (racemic; form 1) and report it.
Reply: > 36000

Task item: Look up Selectivity ratio: CSc1ccc(-c2c(C3CCC(F)(F)CC3C(=O)NCC#N)cc[nH]c2=O)cc1 (racemic)
Reply: > 1250

Task item: Query (molecule): CSc1ccc(-c2nc(C)sc2C2CCC(F)(F)CC2C(=O)NCC#N)cc1 (racemic) ; field requested: Selectivity ratio
Reply: 15000

Others:
Task item: Sample CSc1ccc(-c2c(C3CCC(F)(F)CC3C(=O)NCC#N)nnn2Cc2ccccc2)cc1 (racemic) — what was its Selectivity ratio?
Reply: 1400

Task item: // Selectivity ratio lookup, key: N#CCNC(=O)C1CC(F)(F)CCC1c1cnccc1-c1ccc(SCF)cc1 (racemic)
Reply: > 5000

Task item: Consider the molecule shown here: CSc1ccc(-c2ccccc2C2CCC(F)(F)CC2C(=O)NCC#N)cc1 (racemic; form 2) What is its recorded Selectivity ratio?
Reply: > 120000

Task item: May I ask what Selectivity ratio has been recorded for CSc1ccc(-c2c[n+]([O-])ccc2C2CCC(F)(F)CC2C(=O)NCC#N)cc1 (racemic) ?
Reply: > 2000

Task item: Value lookup for Selectivity ratio; key = CSc1ccc(-c2cnccc2C2CCC(F)(F)CC2C(=O)NCC#N)cc1 (racemic)
Reply: > 10000

Task item: Fill in the blank: the reported Selectivity ratio of CSc1ccc(-c2cn(C)nc2C2CCC(F)(F)CC2C(=O)NCC#N)cc1 (racemic) is ____.
Reply: 9500

Task item: Looking for the measured Selectivity ratio of CSc1ccc(-c2ncccc2C2CCC(F)(F)CC2C(=O)NCC#N)cc1 (racemic) , can you help?
Reply: > 10000
